Target: RF3 (Escherichia coli, UniProt P0A7I4)
Construct: gene prfC; free RF3, N-terminal His-tag, pET30a, BL21(DE3), Ni-NTA and Resource Q
Sequence (P0A7I4 2-529): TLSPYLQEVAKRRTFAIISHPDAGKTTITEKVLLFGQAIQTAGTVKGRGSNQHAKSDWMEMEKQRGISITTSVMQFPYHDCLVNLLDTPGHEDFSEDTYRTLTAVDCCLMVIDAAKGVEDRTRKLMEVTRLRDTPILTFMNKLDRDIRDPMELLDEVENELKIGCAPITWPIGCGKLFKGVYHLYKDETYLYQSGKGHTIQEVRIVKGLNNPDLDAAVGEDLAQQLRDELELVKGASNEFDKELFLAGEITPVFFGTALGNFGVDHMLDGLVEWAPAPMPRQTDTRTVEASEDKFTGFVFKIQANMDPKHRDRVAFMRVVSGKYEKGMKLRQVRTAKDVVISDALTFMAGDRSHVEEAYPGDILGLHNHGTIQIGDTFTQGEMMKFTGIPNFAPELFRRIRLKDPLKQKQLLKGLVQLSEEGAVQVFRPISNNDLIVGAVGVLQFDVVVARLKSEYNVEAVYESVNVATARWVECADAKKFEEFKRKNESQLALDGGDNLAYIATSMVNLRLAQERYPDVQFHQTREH
Experiment: competition titration against mantGDP, FRET
Format: binding
Conditions: pH 7.5, 37 °C, 7 mM MgCl2; competition with purified RF3-mantGDP
parameter_measured: ratio of added nucleotide to mantGDP at half-saturation (fold)

Nc1nc2c(ncn2[C@@H]2O[C@H](COP(=O)(O)OP(=O)(O)OP(=O)(O)O)[C@@H](O)[C@H]2O)c(=O)[nH]1 ... 3
Nc1nc2c(ncn2[C@@H]2O[C@H](COP(=O)(O)OP(=O)(O)O)[C@@H](O)[C@H]2O)c(=O)[nH]1 ... 1

A = Nc1nc2c(ncn2[C@@H]2O[C@H](COP(=O)(O)OP(=O)(O)CP(=O)(O)O)[C@@H](O)[C@H]2O)c(=O)[nH]1
B = Nc1nc2c(ncn2[C@@H]2O[C@H](COP(=O)(O)OP(=O)(O)NP(=O)(O)O)[C@@H](O)[C@H]2O)c(=O)[nH]1
Q. Response body: label of entry with the larger ratio of added nucleotide to mantGDP at half-saturation; valid values A , B . To answer, give the label that identifies your chosen option.
A. A
(A: 60 fold, B: 40 fold)
